Target: human P2X4 receptor (Homo sapiens (Human))
Sequence (Q99571 whole entry): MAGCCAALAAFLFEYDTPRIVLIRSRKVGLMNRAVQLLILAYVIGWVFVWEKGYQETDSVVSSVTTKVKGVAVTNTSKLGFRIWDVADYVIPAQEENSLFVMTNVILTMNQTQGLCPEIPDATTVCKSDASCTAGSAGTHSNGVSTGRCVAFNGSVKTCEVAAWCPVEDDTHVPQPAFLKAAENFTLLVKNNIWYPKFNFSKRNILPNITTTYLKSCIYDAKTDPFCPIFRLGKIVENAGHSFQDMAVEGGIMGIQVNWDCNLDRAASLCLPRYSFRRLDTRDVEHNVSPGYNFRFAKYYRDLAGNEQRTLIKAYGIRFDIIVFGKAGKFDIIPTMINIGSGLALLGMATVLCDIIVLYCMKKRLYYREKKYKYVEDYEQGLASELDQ
Assay: P2X4 receptor antagonist activity (ATP-induced intracellular calcium, Fura-2 AM)
Conditions: 1321N1 cells stably expressing human P2X4 receptor; test substance 15 minutes before ATP; read-out: Inhibitory activity IC50
Structures can show the parent of a compound that is named as a salt.
Classify: Condition met when IC50 is strictly less than 1 µM; Condition not met when IC50 is not.

compound: O=C(COc1ccccn1)Nc1ccc(N2C(=O)CC(=O)Nc3c2ccc2ccccc32)cc1 [Example 210]
target-or-system: human P2X4 receptor (Homo sapiens (Human))
group-label: Condition not met
--
compound: CN(c1ccc(N2C(=O)CC(=O)Nc3c2ccc2c3CCCC2)cc1)S(=O)(=O)Cc1ccccc1Cl [Example 196]
target-or-system: human P2X4 receptor (Homo sapiens (Human))
group-label: Condition met
--
compound: O=C1CC(=O)N(c2ccc(NC(=O)c3c(O)cccc3Cl)cc2)c2ccc3ccccc3c2N1 [Example 118]
target-or-system: human P2X4 receptor (Homo sapiens (Human))
group-label: Condition not met
--
compound: O=C1CC(=O)N(c2ccc(NC(=O)c3cccnc3Cl)cc2)c2ccc3ccccc3c2N1 [Example 209]
target-or-system: human P2X4 receptor (Homo sapiens (Human))
group-label: Condition met
--
compound: O=C(Cc1ccccc1Cl)Nc1ccc(N2C(=O)CC(=O)Nc3c2ccc2ccccc32)cc1 [Example 13]
target-or-system: human P2X4 receptor (Homo sapiens (Human))
group-label: Condition met
--
compound: O=C1CC(=O)N(c2ccc(NC(=O)Nc3ccccc3)cc2)c2ccc3ccccc3c2N1 [Example 20]
target-or-system: human P2X4 receptor (Homo sapiens (Human))
group-label: Condition not met
--
compound: Cc1ncccc1C(=O)Nc1ccc(N2C(=O)CC(=O)Nc3c2ccc2ccccc32)cc1 [Example 208, hydrochloride]
target-or-system: human P2X4 receptor (Homo sapiens (Human))
group-label: Condition not met
--
compound: O=C1CN=C(c2ccc(NS(=O)(=O)Cc3ccccc3Cl)cc2)c2ccc3ccccc3c2N1 [Example 197]
target-or-system: human P2X4 receptor (Homo sapiens (Human))
group-label: Condition met

Values compiled from patent US9969700B2.
